tgt: human GluN2A (Homo sapiens, UniProt Q05586+Q12879)
Construct: host or cells: HEK293, tetracycline-induced
Sequence (Q12879 23-1464, other chains not shown): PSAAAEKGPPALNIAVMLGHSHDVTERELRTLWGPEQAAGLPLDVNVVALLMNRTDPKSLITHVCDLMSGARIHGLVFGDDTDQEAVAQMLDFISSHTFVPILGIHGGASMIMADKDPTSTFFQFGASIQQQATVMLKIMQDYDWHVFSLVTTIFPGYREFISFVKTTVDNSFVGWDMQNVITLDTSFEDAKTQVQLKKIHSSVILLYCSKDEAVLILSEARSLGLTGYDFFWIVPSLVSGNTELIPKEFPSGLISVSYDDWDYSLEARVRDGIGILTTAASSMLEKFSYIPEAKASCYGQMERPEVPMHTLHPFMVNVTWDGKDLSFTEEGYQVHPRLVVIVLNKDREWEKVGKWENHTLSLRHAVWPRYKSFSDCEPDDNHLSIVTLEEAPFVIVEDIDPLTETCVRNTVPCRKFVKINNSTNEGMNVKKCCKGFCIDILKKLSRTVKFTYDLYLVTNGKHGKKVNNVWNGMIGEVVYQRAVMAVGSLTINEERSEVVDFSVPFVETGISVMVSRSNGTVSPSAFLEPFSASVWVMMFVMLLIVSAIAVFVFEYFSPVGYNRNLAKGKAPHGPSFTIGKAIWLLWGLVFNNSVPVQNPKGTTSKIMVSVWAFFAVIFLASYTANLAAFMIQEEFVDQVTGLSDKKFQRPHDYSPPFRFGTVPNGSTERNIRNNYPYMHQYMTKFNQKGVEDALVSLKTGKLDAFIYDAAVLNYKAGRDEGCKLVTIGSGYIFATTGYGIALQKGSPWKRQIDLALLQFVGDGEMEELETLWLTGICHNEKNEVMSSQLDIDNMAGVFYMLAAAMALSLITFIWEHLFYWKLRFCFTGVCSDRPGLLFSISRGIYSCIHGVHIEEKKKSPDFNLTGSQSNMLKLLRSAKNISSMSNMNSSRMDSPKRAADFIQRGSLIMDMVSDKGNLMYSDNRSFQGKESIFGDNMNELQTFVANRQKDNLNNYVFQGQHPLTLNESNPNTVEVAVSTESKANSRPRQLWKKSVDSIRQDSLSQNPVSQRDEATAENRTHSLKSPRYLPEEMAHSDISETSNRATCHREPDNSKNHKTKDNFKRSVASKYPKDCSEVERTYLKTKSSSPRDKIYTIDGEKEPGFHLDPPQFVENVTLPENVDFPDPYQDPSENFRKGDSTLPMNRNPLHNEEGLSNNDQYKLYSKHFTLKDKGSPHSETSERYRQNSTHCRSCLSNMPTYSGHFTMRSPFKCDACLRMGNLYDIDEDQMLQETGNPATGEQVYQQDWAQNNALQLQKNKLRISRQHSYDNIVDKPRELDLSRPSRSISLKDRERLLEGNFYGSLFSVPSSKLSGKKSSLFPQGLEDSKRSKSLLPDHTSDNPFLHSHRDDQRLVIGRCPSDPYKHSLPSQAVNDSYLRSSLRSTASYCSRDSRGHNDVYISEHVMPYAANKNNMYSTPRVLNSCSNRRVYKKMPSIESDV
experiment-summary: Ca2+ fluorescence (fluo-8) assay in HEK cells expressing GluN2A
Format: cell-based
study-conditions: read-out: GluN2A IC50 (nM) ± SEM (n)
Method: HEK293 cells expressing the human GRIN1/GRIN2A genes (Chantest Catalog #: CT6120) were grown as an adherent monolayer at 37°C, 5% CO2 in DMEM/Ham’s F12 + 10% tetracycline-screened FBS (Hyclone SH3007.03T) and 500 μg/ml G418. […] Cells collected from the flask were washed twice in Ca^2+/Mg^2+-free Hanks Balanced Salt Solution + 20 mM HEPES (HBSS), and counted and assessed for viability with trypan blue. […]
Item-by-item account of log10(IC50)
readout-type: log10(IC50) (log10 of the value in nM)

In [3]: df
Out[3]:
                                   compound  measured_number
0  Cc1ncc(CNC(=O)c2ccc(CNS(=O)(=O)c3ccc(F)c(F)c3)cn2)s1 [compound 6]             2.20
1  Cc1ncc(CNC(=O)c2cnc(CNS(=O)(=O)c3ccc(Cl)c(F)c3)c(C)n2)s1 [compound 8]             2.99
2  Cc1ncc(CNC(=O)c2cnc(CNS(=O)(=O)c3ccc(F)c(Cl)c3)c(C)n2)s1 [compound 7]             1.26
3  Cc1ncc(CNC(=O)c2ccc(CNS(=O)(=O)c3ccc(F)c(Cl)c3)cn2)s1 [compound 3]             1.88
4  Cc1ncc(CNC(=O)c2cnc(CNS(=O)(=O)c3ccc(F)c(F)c3)cn2)s1 [compound 5]             2.06
5  Cc1ncc(CNC(=O)c2cnc(CN(C)S(=O)(=O)c3ccc(F)c(Cl)c3)c(C)n2)s1 [compound 10]             2.38
6  Cc1ncc(CNC(=O)c2ccc(CNS(=O)(=O)c3ccc(F)c(Cl)c3)cc2)s1 [compound 2]             2.60
